Tested on: PC-3 PIP/flu tumor-bearing mice
Assay: Biodistribution in PC-3 PIP/flu tumor-bearing mice
Settings: 30 min p.i., i.v.
Recorded Heart values for a group of molecules are listed next.
measurementLabel: Heart (% IA/g)

1) O=C([O-])CN1CCN(CC(=O)[O-])CCN(CC(=O)NCC2CCC(C(=O)NC(Cc3ccc4ccccc4c3)C(=O)NCCCCC(NC(=O)NC(CCC(=O)O)C(=O)O)C(=O)O)CC2)CCN(CC(=O)[O-])CC1.[44Sc+3] (stereo not shown) [^44Sc-PSMA-617] | 1.31
2) O=C([O-])CN1CCN(CC(=O)[O-])CCN(CC(=O)NCC2CCC(C(=O)NC(Cc3ccc4ccccc4c3)C(=O)NCCCCC(NC(=O)NC(CCC(=O)O)C(=O)O)C(=O)O)CC2)CCN(CC(=O)[O-])CC1.[68Ga+3] (stereo not shown) [^68Ga-PSMA-617] | 1.47
3) O=C([O-])CN(CCN(CC(=O)[O-])Cc1cc(CCC(=O)NCCCCCC(=O)NCCCC[C@H](NC(=O)N[C@@H](CCC(=O)O)C(=O)O)C(=O)O)ccc1[O-])Cc1cc(CCC(=O)O)ccc1[O-].[68Ga+3] [^68Ga-PSMA-11] | 1.31
4) O=C([O-])CN1CCN(CC(=O)[O-])CCN(CC(=O)NCC2CCC(C(=O)N[C@@H](Cc3ccc4ccccc4c3)C(=O)NCCCC[C@H](NC(=O)N[C@@H](CCC(=O)O)C(=O)O)C(=O)O)CC2)CCN(CC(=O)[O-])CC1.[177Lu+3] (stereo partly shown) [^177Lu-PSMA-617] | 1.32

====

Recorded Liver values for a group of compounds are listed next.
Tested on: PC-3 PIP/flu tumor-bearing mice
Test: Biodistribution in PC-3 PIP/flu tumor-bearing mice
Conditions: 30 min p.i., i.v.
measurementLabel: Liver (% IA/g)

1) O=C([O-])CN1CCN(CC(=O)[O-])CCN(CC(=O)NCC2CCC(C(=O)NC(Cc3ccc4ccccc4c3)C(=O)NCCCCC(NC(=O)NC(CCC(=O)O)C(=O)O)C(=O)O)CC2)CCN(CC(=O)[O-])CC1.[44Sc+3] (stereo not shown) [^44Sc-PSMA-617] | 0.80
2) O=C([O-])CN(CCN(CC(=O)[O-])Cc1cc(CCC(=O)NCCCCCC(=O)NCCCC[C@H](NC(=O)N[C@@H](CCC(=O)O)C(=O)O)C(=O)O)ccc1[O-])Cc1cc(CCC(=O)O)ccc1[O-].[68Ga+3] [^68Ga-PSMA-11] | 1.55
3) O=C([O-])CN1CCN(CC(=O)[O-])CCN(CC(=O)NCC2CCC(C(=O)N[C@@H](Cc3ccc4ccccc4c3)C(=O)NCCCC[C@H](NC(=O)N[C@@H](CCC(=O)O)C(=O)O)C(=O)O)CC2)CCN(CC(=O)[O-])CC1.[177Lu+3] (stereo partly shown) [^177Lu-PSMA-617] | 0.90
4) O=C([O-])CN1CCN(CC(=O)[O-])CCN(CC(=O)NCC2CCC(C(=O)NC(Cc3ccc4ccccc4c3)C(=O)NCCCCC(NC(=O)NC(CCC(=O)O)C(=O)O)C(=O)O)CC2)CCN(CC(=O)[O-])CC1.[68Ga+3] (stereo not shown) [^68Ga-PSMA-617] | 2.91

====

System: PC-3 PIP/flu tumor-bearing mice
Assay: Biodistribution in PC-3 PIP/flu tumor-bearing mice
Conditions: 2 h p.i., i.v.
Recorded Bone values for a group of compounds are listed next.
measurementLabel: Bone

1) O=C([O-])CN1CCN(CC(=O)[O-])CCN(CC(=O)NCC2CCC(C(=O)NC(Cc3ccc4ccccc4c3)C(=O)NCCCCC(NC(=O)NC(CCC(=O)O)C(=O)O)C(=O)O)CC2)CCN(CC(=O)[O-])CC1.[44Sc+3] (stereo not shown) [^44Sc-PSMA-617] | 0.26 ± 0.13 % IA/g
2) O=C([O-])CN1CCN(CC(=O)[O-])CCN(CC(=O)NCC2CCC(C(=O)NC(Cc3ccc4ccccc4c3)C(=O)NCCCCC(NC(=O)NC(CCC(=O)O)C(=O)O)C(=O)O)CC2)CCN(CC(=O)[O-])CC1.[68Ga+3] (stereo not shown) [^68Ga-PSMA-617] | 0.09 ± 0.02 % IA/g
3) O=C([O-])CN1CCN(CC(=O)[O-])CCN(CC(=O)NCC2CCC(C(=O)N[C@@H](Cc3ccc4ccccc4c3)C(=O)NCCCC[C@H](NC(=O)N[C@@H](CCC(=O)O)C(=O)O)C(=O)O)CC2)CCN(CC(=O)[O-])CC1.[177Lu+3] (stereo partly shown) [^177Lu-PSMA-617] | 0.12 ± 0.07 % IA/g
4) O=C([O-])CN(CCN(CC(=O)[O-])Cc1cc(CCC(=O)NCCCCCC(=O)NCCCC[C@H](NC(=O)N[C@@H](CCC(=O)O)C(=O)O)C(=O)O)ccc1[O-])Cc1cc(CCC(=O)O)ccc1[O-].[68Ga+3] [^68Ga-PSMA-11] | 0.06 ± 0.00 % IA/g

====

Test system: PC-3 PIP/flu tumor-bearing mice
Assay: Biodistribution in PC-3 PIP/flu tumor-bearing mice
Conditions: 2 h p.i., i.v.
Recorded Intestines values for a group of compounds are listed next.
measurementLabel: Intestines (% IA/g)

1) O=C([O-])CN1CCN(CC(=O)[O-])CCN(CC(=O)NCC2CCC(C(=O)NC(Cc3ccc4ccccc4c3)C(=O)NCCCCC(NC(=O)NC(CCC(=O)O)C(=O)O)C(=O)O)CC2)CCN(CC(=O)[O-])CC1.[44Sc+3] (stereo not shown) [^44Sc-PSMA-617] | 0.15
2) O=C([O-])CN1CCN(CC(=O)[O-])CCN(CC(=O)NCC2CCC(C(=O)N[C@@H](Cc3ccc4ccccc4c3)C(=O)NCCCC[C@H](NC(=O)N[C@@H](CCC(=O)O)C(=O)O)C(=O)O)CC2)CCN(CC(=O)[O-])CC1.[177Lu+3] (stereo partly shown) [^177Lu-PSMA-617] | 0.14
3) O=C([O-])CN1CCN(CC(=O)[O-])CCN(CC(=O)NCC2CCC(C(=O)NC(Cc3ccc4ccccc4c3)C(=O)NCCCCC(NC(=O)NC(CCC(=O)O)C(=O)O)C(=O)O)CC2)CCN(CC(=O)[O-])CC1.[68Ga+3] (stereo not shown) [^68Ga-PSMA-617] | 0.12
4) O=C([O-])CN(CCN(CC(=O)[O-])Cc1cc(CCC(=O)NCCCCCC(=O)NCCCC[C@H](NC(=O)N[C@@H](CCC(=O)O)C(=O)O)C(=O)O)ccc1[O-])Cc1cc(CCC(=O)O)ccc1[O-].[68Ga+3] [^68Ga-PSMA-11] | 0.95

====

System: PC-3 PIP/flu tumor-bearing mice
Test: Biodistribution in PC-3 PIP/flu tumor-bearing mice
Conditions: 15 min p.i., i.v.
measurementLabel: Intestines (% IA/g)

1) O=C([O-])CN1CCN(CC(=O)[O-])CCN(CC(=O)NCC2CCC(C(=O)N[C@@H](Cc3ccc4ccccc4c3)C(=O)NCCCC[C@H](NC(=O)N[C@@H](CCC(=O)O)C(=O)O)C(=O)O)CC2)CCN(CC(=O)[O-])CC1.[177Lu+3] (stereo partly shown) [^177Lu-PSMA-617] | 1.64
2) O=C([O-])CN(CCN(CC(=O)[O-])Cc1cc(CCC(=O)NCCCCCC(=O)NCCCC[C@H](NC(=O)N[C@@H](CCC(=O)O)C(=O)O)C(=O)O)ccc1[O-])Cc1cc(CCC(=O)O)ccc1[O-].[68Ga+3] [^68Ga-PSMA-11] | 1.42
3) O=C([O-])CN1CCN(CC(=O)[O-])CCN(CC(=O)NCC2CCC(C(=O)NC(Cc3ccc4ccccc4c3)C(=O)NCCCCC(NC(=O)NC(CCC(=O)O)C(=O)O)C(=O)O)CC2)CCN(CC(=O)[O-])CC1.[44Sc+3] (stereo not shown) [^44Sc-PSMA-617] | 1.89
4) O=C([O-])CN1CCN(CC(=O)[O-])CCN(CC(=O)NCC2CCC(C(=O)NC(Cc3ccc4ccccc4c3)C(=O)NCCCCC(NC(=O)NC(CCC(=O)O)C(=O)O)C(=O)O)CC2)CCN(CC(=O)[O-])CC1.[68Ga+3] (stereo not shown) [^68Ga-PSMA-617] | 1.55

====

System: PC-3 PIP/flu tumor-bearing mice
Assay: Biodistribution in PC-3 PIP/flu tumor-bearing mice
Settings: 30 min p.i., i.v.
measurementLabel: Muscle

1. O=C([O-])CN1CCN(CC(=O)[O-])CCN(CC(=O)NCC2CCC(C(=O)N[C@@H](Cc3ccc4ccccc4c3)C(=O)NCCCC[C@H](NC(=O)N[C@@H](CCC(=O)O)C(=O)O)C(=O)O)CC2)CCN(CC(=O)[O-])CC1.[177Lu+3] (stereo partly shown) [^177Lu-PSMA-617] | 0.75 ± 0.20 % IA/g
2. O=C([O-])CN(CCN(CC(=O)[O-])Cc1cc(CCC(=O)NCCCCCC(=O)NCCCC[C@H](NC(=O)N[C@@H](CCC(=O)O)C(=O)O)C(=O)O)ccc1[O-])Cc1cc(CCC(=O)O)ccc1[O-].[68Ga+3] [^68Ga-PSMA-11] | 0.67 ± 0.06 % IA/g
3. O=C([O-])CN1CCN(CC(=O)[O-])CCN(CC(=O)NCC2CCC(C(=O)NC(Cc3ccc4ccccc4c3)C(=O)NCCCCC(NC(=O)NC(CCC(=O)O)C(=O)O)C(=O)O)CC2)CCN(CC(=O)[O-])CC1.[44Sc+3] (stereo not shown) [^44Sc-PSMA-617] | 1.08 ± 0.20 % IA/g
4. O=C([O-])CN1CCN(CC(=O)[O-])CCN(CC(=O)NCC2CCC(C(=O)NC(Cc3ccc4ccccc4c3)C(=O)NCCCCC(NC(=O)NC(CCC(=O)O)C(=O)O)C(=O)O)CC2)CCN(CC(=O)[O-])CC1.[68Ga+3] (stereo not shown) [^68Ga-PSMA-617] | 0.80 ± 0.10 % IA/g
